Values were extracted from paper PMC8159961.

TARGET_DESC: 5-HT1A receptor (human)
Sequence (P08908 whole entry, looked up): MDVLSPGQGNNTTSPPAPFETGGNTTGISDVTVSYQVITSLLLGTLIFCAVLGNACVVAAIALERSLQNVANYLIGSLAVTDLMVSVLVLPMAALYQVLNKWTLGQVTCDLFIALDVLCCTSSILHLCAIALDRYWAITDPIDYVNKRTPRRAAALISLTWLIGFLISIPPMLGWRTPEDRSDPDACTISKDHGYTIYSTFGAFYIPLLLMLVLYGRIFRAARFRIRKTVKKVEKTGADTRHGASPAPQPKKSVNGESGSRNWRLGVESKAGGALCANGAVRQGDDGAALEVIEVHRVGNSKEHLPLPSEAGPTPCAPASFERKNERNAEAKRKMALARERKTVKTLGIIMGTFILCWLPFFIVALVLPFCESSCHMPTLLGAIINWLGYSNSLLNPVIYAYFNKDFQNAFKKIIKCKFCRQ
EXPERIMENT: primary screen, binary call; higher = more effect of the substance; call rule not given here
Set-up: hit call from the mean of at least two separate experiments
CONDITION_DETAILS: 10 µM
Labels: 1 (active), -1 (inactive)

- O=C(c1ccncc1)N1CCNCC1: -1
- Fc1ccc(CC2CCCNC2)cc1 (stereo not shown): -1
- COC(=O)c1c(C)nc(C2CC2)[nH]c1=O: -1
- NC1CCc2ccccc21 (stereo not shown): -1
- CCc1nccn1CC(=O)O: -1
- Oc1ccccc1N1CCCCC1: -1
- O=C1NC(=O)C2(CCc3ccccc32)N1 (stereo not shown): -1
- c1cnc2c(c1)NCCC2: -1
- CC1C(=O)NC(=O)N1c1ccc(Cl)cc1 (stereo not shown): -1
- O=c1ccc2c([nH]1)CCCC2: -1
- COc1ccc(C2=CCNCC2)cc1: -1
- CS(=O)(=O)Nc1ccc(C(=O)O)cc1: -1
- O=C(O)CC1CCC(=O)N1 (stereo not shown): -1
- O=C(c1ccccc1)N1CCC(CO)CC1: -1
- Cc1cc(-c2ccccc2)n[nH]1: -1
- c1ccc2sc(N3CCNCC3)nc2c1: 1
